- assay method text: Noncompetitive inhibition of yeast glyoxalase 1 assessed as inhibition of product formation by double reciprocal plot method
- Design: species or system Saccharomyces cerevisiae
- recorded conditions: read-out: Ki
Square brackets hold non-standard residues; d marks the D form. Peptide text beside a SMILES is read from it. * marks the point of attachment. Bn = c1ccc(C*)cc1; GABA = NCCCC(=O)O; βAla = NCCC(=O)O
measure: Ki (µM)

(a) O=C(O)CCCC(=O)N[C@@H](CSCc1ccccc1)C(=O)NCC(=O)O
(b) O=C(O)CCC(=O)N[C@@H](CSCc1ccccc1)C(=O)NCC(=O)O
Q. Lower value for measured Ki? Options: a , b Field: selected label. Fill in the label of the entry you choose.
A. a

(P) O=C(O)CCC(=O)N[C@@H](CSCc1ccc(Br)cc1)C(=O)NCC(=O)O
(Q) NCCCC(=O)N[C@@H](CSCc1ccc(Br)cc1)C(=O)NCC(=O)O
(R) NCCC(=O)N[C@@H](CSCc1ccccc1)C(=O)NCC(=O)O (H-[βAla]-Cys(Bn)-Gly-OH)
(S) N[C@@H](CSCc1ccc(Br)cc1)C(=O)NCC(=O)O
Q. Arrange the 4 compounds from largest to smallest Ki. Please list the labels according to the requested order.
A. R, Q, S, P

(A) NCCCC(=O)N[C@@H](CSCc1ccccc1)C(=O)NCC(=O)O (H-[GABA]-Cys(Bn)-Gly-OH)
(B) O=C(O)CCCC(=O)N[C@@H](CSCc1ccc(Br)cc1)C(=O)NCC(=O)O
Q. Among A and B , whose measured Ki is the smaller figure? Label of pick, please.
A. B

// data source = ChEMBL document CHEMBL3272127
